test: Cytotoxicity against human HK-2 cells assessed as inhibition of cell viability incubated for 24 hrs by MTT assay; assay type: toxicity, cell-based
readoutName: IC50 at 24 h (µM)

[
  {
    "molecule": "CC1(C)[C@@H](O[C@H]2O[C@H](C(=O)O)[C@@H](O)[C@H](O)[C@H]2O[C@@H]2O[C@H](C(=O)O)[C@@H](O)[C@H](O)[C@H]2O)CC[C@]2(C)[C@H]3C(=O)C=C4[C@@H]5C[C@@](C)(C(=O)O)CC[C@]5(C)CC[C@@]4(C)[C@]3(C)CC[C@@H]12",
    "readoutName": "IC50 at 24 h",
    "readoutUnit": "µM",
    "relationOperator": "=",
    "readoutValue": 160
  },
  {
    "molecule": "CC(=O)O[C@H]1[C@H](C)OC(n2cc(COC(=O)[C@@]3(C)CC[C@]4(C)CC[C@]5(C)C(=CC(=O)[C@@H]6[C@@]7(C)CC[C@H](OC(=O)CCc8ccccc8)C(C)(C)C7CC[C@]65C)[C@H]4C3)nn2)C[C@@H]1OC(C)=O (stereo partly specified)",
    "readoutName": "IC50 at 24 h",
    "readoutUnit": "µM",
    "relationOperator": ">",
    "readoutValue": 800
  },
  {
    "molecule": "CC(=O)OC[C@@H]1OC(n2cc(COC(=O)[C@@]3(C)CC[C@]4(C)CC[C@]5(C)C(=CC(=O)[C@@H]6[C@@]7(C)CC[C@H](OC(=O)CCc8ccccc8)C(C)(C)C7CC[C@]65C)[C@H]4C3)nn2)[C@@H](OC(C)=O)[C@H]1OC(C)=O (stereo partly specified)",
    "readoutName": "IC50 at 24 h",
    "readoutUnit": "µM",
    "relationOperator": "=",
    "readoutValue": 557
  },
  {
    "molecule": "COC(=O)[C@@]1(C)CC[C@]2(C)CC[C@]3(C)C(=CC(=O)[C@@H]4[C@@]5(C)CC[C@H](OCc6cn(C7O[C@H](COC(C)=O)[C@@H](OC(C)=O)[C@H](OC(C)=O)[C@H]7OC(C)=O)nn6)C(C)(C)C5CC[C@]43C)[C@H]2C1 (stereo partly specified)",
    "readoutName": "IC50 at 24 h",
    "readoutUnit": "µM",
    "relationOperator": "=",
    "readoutValue": 56.1
  },
  {
    "molecule": "CC(=O)OC[C@@H]1OC(n2cc(COC(=O)[C@@]3(C)CC[C@]4(C)CC[C@]5(C)C(=CC(=O)[C@@H]6[C@@]7(C)CC[C@H](OC(=O)CCc8ccccc8)C(C)(C)C7CC[C@]65C)[C@H]4C3)nn2)[C@@H](OC(C)=O)[C@H](OC(C)=O)[C@@H]1OC(C)=O (stereo partly specified)",
    "readoutName": "IC50 at 24 h",
    "readoutUnit": "µM",
    "relationOperator": "=",
    "readoutValue": 127
  },
  {
    "molecule": "COC(=O)[C@@]1(C)CC[C@]2(C)CC[C@]3(C)C(=CC(=O)[C@@H]4[C@@]5(C)CC[C@H](OCc6cn(C7O[C@H](COC(C)=O)[C@@H](OC(C)=O)[C@H](OC(C)=O)[C@@H]7OC(C)=O)nn6)C(C)(C)C5CC[C@]43C)[C@H]2C1 (stereo partly specified)",
    "readoutName": "IC50 at 24 h",
    "readoutUnit": "µM",
    "relationOperator": "=",
    "readoutValue": 57.2
  }
]
